Reported pIC50 for target or system Glutamate NMDA receptor; GRIN1/GRIN2B (Homo sapiens, UniProt Q05586+Q13224), by entry.
Numbers only, as −log10 of the molar value.

Use these answered entries as a reference point.
> print(dat)
                      smiles.code  numeric.readout
1  Nc1c2c(nc3c(Br)cc(Br)cc13)CCC2             4.77
2    Nc1c2c(nc3ccc(Cl)cc13)CCCCC2             4.92
3     Cc1ccc2c(N)c3c(nc2c1)CCCCC3             5.03
4       Cc1ccc2nc3c(c(N)c2c1)CCC3             4.70

Batch of 7 compounds: report pIC50 for each.
1. COc1ccc2nc3c(c(N)c2c1)CCCC3.Cl
2. Cc1cccc2nc3c(c(N)c12)CCC3
3. Nc1c2c(nc3c(Cl)cc(Cl)cc13)CCCC2
4. Nc1c2c(nc3cccc(Cl)c13)CCCC2
5. Nc1c2c(nc3c(Cl)cc(Cl)cc13)CCC2
6. COc1ccc2nc3c(c(N)c2c1)CCC3
7. Cc1ccc2c(N)c3c(nc2c1)CCC3

Output:
1. 5.14
2. 4.78
3. 4.43
4. 4.62
5. 4.67
6. 4.84
7. 4.81

====

// pIC50 collected for Glutamate NMDA receptor; GRIN1/GRIN2A (Homo sapiens, UniProt Q05586+Q12879)
Answers are plain numbers, as −log10 of the molar value.

Previously resolved entries follow.
> print(dat)
                      smiles.code  numeric.readout
1  Cl.Nc1c2c(nc3ccc(Br)cc13)CCCC2             5.18
2   Cl.Nc1c2c(nc3ccc(Br)cc13)CCC2             5.21

Quick batch: pIC50 for everything below.
1. Nc1c2c(nc3cccc(Cl)c13)CCCC2
2. Nc1c2c(nc3c(Cl)cc(Cl)cc13)CCC2
3. Nc1c2c(nc3ccc(Cl)cc13)CCCC2

Output:
1. 4.71
2. 4.83
3. 4.83

Could I get pIC50 for every one of these entries?
1. Cl.Nc1c2c(nc3ccc(Cl)cc13)CCC2
2. COc1ccc2nc3c(c(N)c2c1)CCCCC3
3. Cc1ccc2nc3c(c(N)c2c1)CCCC3
4. Cc1ccc2c(N)c3c(nc2c1)CCC3
5. COc1ccc2nc3c(c(N)c2c1)CCCC3.Cl
6. Nc1c2c(nc3c(Br)cc(Br)cc13)CCCCC2
7. Nc1c2c(nc3ccc(F)cc13)CCCCC2

Output:
1: 4.68; 2: 4.70; 3: 4.91; 4: 5.11; 5: 5.33; 6: 4.67; 7: 4.84

List pIC50 for every entry below, keeping the order given.
1. Nc1c2c(nc3ccc(F)cc13)CCCC2
2. Cc1ccc2nc3c(c(N)c2c1)CCCCC3
3. Cc1cccc2nc3c(c(N)c12)CCCCC3
4. Nc1c2c(nc3c(Cl)cc(Cl)cc13)CCCC2

Output:
4.81
4.57
4.90
4.62

====

assay: Toxicity in Wistar rat assessed as prepulse inhibition of acoustic startle response at 1 to 5 mg/kg, ip measured for 10 mins by open field test relative to control; format: organism-based; details: in vivo, dose 1-5 mg/kg
property_name: Activity

> print(dat)
                       smiles.code     result
1  Cl.Nc1c2c(nc3cccc(Cl)c13)CCCCC2  Non-Toxic
2   Cl.Nc1c2c(nc3ccc(Br)cc13)CCCC2  Non-Toxic
3    Cl.Nc1c2c(nc3ccc(Br)cc13)CCC2  Non-Toxic
4    Cc1ccc2c(N)c3c(nc2c1)CCCC3.Cl  Non-Toxic

Now consider the entry below.
Input: Quick one: Activity for Cl.Nc1c2c(nc3ccc(Cl)cc13)CCC2 ?
Output: Non-Toxic

Just for reference, ChEMBL document CHEMBL4814070 is where these values come from.
